test system: MOLT-4 leukemia; assay: NCI tumour cell line growth inhibition, 48 h
experimental.endpoint: TGI (µM)

| compound | censoring.sign | assay.result |
| --- | --- | --- |
| CN(C)c1ccc(/C=C/C2=[N+](C)c3ccccc3C2(C)C)cc1 | = | 2.24 |
| Cn1c(=O)c(Oc2ccc(F)cc2F)cc2cnc(NC3CCS(=O)(=O)CC3)nc21 | > | 25 |
| CC1=CC(=O)CC(C)(C)C1/C=C/C(C)=C/C=C/C(C)=C/C=C/C=C(C)/C=C/C=C(C)/C=C/C1=C(C)CC(O)CC1(C)C (stereo not given) | = | 1.6 |
| Cc1ccc(Cl)c(Nc2ccccc2C(=O)O)c1Cl | = | 83.9 |
| O=C1C=CC(=O)c2c1ccc1c3ccccc3n(Cc3cccc([N+](=O)[O-])c3)c21 | = | 37.7 |
